Reported Cmax values for the following molecules.
experiment: Maximum concentration was determined in monkey by iv/po dose at 10 mg/kg; assay type: ADME, organism-based; set-up: dose 10 mg/kg; conditions: cercopithecidae, in vivo
value.kind: Cmax

INSERT INTO results (smiles_str, endpoint_result) VALUES
  ('COc1cc2c(N3CCN(C(=S)NCc4ccc5c(c4)OCO5)CC3)ncnc2cc1OCCN1CCCCC1', '92.5 ng/mL'),
  ('COc1cc2c(N3CCN(/C(S)=N\c4ccc(-c5ccccn5)cc4)CC3)ncnc2cc1OCCN1CCCCC1', '143 ng/mL'),
  ('COc1cc2c(N3CCN(C(=S)NCc4cnc(C)cn4)CC3)ncnc2cc1OCCN1CCCCC1', '235 ng/mL');

###

assay: Plasma half life was determined in dog by iv/po dose at 8.09 mg/kg; type: ADME, organism-based, Canis lupus familiaris; parameters: dose 8.09 mg/kg
value.kind: half-life (min)

INSERT INTO measurements (smiles_str, endpoint_result) VALUES
  ('COc1cc2c(N3CCN(C(=S)NCc4ccc5c(c4)OCO5)CC3)ncnc2cc1OCCN1CCCCC1', 942);

###

assay: Plasma half life was determined in rat by iv/po dose at 10 mg/kg; format: ADME, organism-based; design: dose 10 mg/kg
value.kind: half-life

INSERT INTO assay_data (smiles_str, endpoint_result) VALUES
  ('COc1cc2c(N3CCN(/C(S)=N\c4ccc(-c5ccccn5)cc4)CC3)ncnc2cc1OCCN1CCCCC1', '17.4 h');

###

Attribute: IC50
biological target: Platelet-derived growth factor receptor beta (Homo sapiens, UniProt P09619); test: In vitro inhibition of Platelet derived growth factor receptor beta autophosphorylation in MG-63 cells with 45% human plasma; type: cell-based
Sequence (P09619 whole entry): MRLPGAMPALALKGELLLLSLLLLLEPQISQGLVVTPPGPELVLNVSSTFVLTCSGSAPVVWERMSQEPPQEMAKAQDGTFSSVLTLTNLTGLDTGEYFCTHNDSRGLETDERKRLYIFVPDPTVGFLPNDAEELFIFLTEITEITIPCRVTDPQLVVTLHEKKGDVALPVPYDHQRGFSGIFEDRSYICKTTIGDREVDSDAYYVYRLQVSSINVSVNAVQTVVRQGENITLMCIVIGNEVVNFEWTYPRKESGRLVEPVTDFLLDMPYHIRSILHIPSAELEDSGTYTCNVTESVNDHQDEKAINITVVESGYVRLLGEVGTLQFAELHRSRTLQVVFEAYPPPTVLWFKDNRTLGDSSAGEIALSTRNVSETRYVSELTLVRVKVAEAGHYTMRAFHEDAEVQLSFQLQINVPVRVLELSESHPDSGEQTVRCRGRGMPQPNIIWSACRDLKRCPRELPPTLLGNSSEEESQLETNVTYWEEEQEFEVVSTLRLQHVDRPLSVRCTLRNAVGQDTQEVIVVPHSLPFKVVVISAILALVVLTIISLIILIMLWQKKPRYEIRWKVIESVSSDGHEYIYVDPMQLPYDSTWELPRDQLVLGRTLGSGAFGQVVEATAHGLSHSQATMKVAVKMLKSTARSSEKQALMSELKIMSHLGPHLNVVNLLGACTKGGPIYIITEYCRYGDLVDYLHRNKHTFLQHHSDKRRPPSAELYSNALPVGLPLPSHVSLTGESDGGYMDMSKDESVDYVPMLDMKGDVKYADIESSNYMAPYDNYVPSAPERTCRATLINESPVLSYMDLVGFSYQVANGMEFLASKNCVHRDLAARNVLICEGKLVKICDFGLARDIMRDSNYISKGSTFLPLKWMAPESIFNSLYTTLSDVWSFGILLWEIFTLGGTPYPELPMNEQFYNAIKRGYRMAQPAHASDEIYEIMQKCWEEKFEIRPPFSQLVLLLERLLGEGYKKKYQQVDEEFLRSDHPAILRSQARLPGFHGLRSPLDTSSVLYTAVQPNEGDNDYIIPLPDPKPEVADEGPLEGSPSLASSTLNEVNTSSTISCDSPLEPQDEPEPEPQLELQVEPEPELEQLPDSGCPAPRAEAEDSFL
value.kind: IC50 (nM)

INSERT INTO results (smiles_str, value_kind, endpoint_result) VALUES
  ('COc1cc2c(N3CCN(/C(S)=N\Cc4ccc(C)o4)CC3)ncnc2cc1OCCCN1CCCCC1', 'IC50', 90),
  ('COc1cc2c(N3CCN(C(=NC#N)Nc4ccncc4)CC3)ncnc2cc1OCCCN1CCCCC1', 'IC50', 17100),
  ('COc1cc2c(N3CCN(/C(S)=N\c4ccncc4)CC3)ncnc2cc1OCCN1CCCCC1', 'IC50', 400),
  ('COc1cc2c(N3CCN(C(=S)NCc4cnc(C)cn4)CC3)ncnc2cc1OCCN1CCOCC1', 'IC50', 230),
  ('COc1cc2c(N3CCN(C(=S)NCc4ccc(Cl)nc4)CC3)ncnc2cc1OCCN1CCCCC1', 'IC50', 80),
  ('COc1cc2c(N3CCN(C(=S)Nc4ccc(-c5ccccc5)nc4)CC3)ncnc2cc1OCCCN1CCCCC1', 'IC50', 270),
  ('COc1cc2c(N3CCN(C(=S)NCc4ccc(-c5ccccn5)cc4)CC3)ncnc2cc1OCCN1CCCCC1', 'IC50', 1490),
  ('COc1cc2c(N3CCN(/C(=N\c4ccc(-c5ccccn5)cc4)NC#N)CC3)ncnc2cc1OCCCN1CCCCC1', 'IC50', 370),
  ('COc1cc2c(N3CCN(C(=S)Nc4ccncc4)CC3)c(C#N)cnc2cc1OCCCN1CCCCC1', 'IC50', 130),
  ('COc1cc2c(N3CCN(C(=S)NCc4ccc(-c5ccccc5)nc4)CC3)c(C#N)cnc2cc1OCCCN1CCCCC1', 'IC50', 100),
  ('COc1cc2c(N3CCN(C(=S)Nc4ccc(-c5ccccn5)cc4)CC3)ncnc2cc1OCCCN1CCCCC1', 'IC50', 100),
  ('COc1cc2c(N3CCN(/C(=N\Cc4ccc5c(c4)OCO5)NC#N)CC3)ncnc2cc1OCCCN1CCCCC1', 'IC50', 590),
  ('COc1cc2c(N3CCN(/C(S)=N\c4ccsc4)CC3)ncnc2cc1OCCN1CCCCC1', 'IC50', 740),
  ('COc1cc2c(N3CCN(C(=S)NCc4ccncc4)CC3)ncnc2cc1OCCN1CCCCC1', 'IC50', 3590),
  ('COc1cc2c(N3CCN(/C(S)=N\c4ccc(Br)cc4)CC3)ncnc2cc1OCCN1CCOCC1', 'IC50', 540),
  ('COc1cc2c(N3CCN(/C(S)=N\c4ccc(C#N)cc4)CC3)c(C#N)cnc2cc1OCCCN1CCCCC1', 'IC50', 120),
  ('COc1cc2c(N3CCN(C(=S)NCc4ccc(-c5ccncc5)cc4)CC3)ncnc2cc1OCCN1CCCCC1', 'IC50', 5040),
  ('COc1cc2c(N3CCN(C(=S)Nc4ccc(-c5ccccc5)cn4)CC3)ncnc2cc1OCCCN1CCCCC1', 'IC50', 550),
  ('COc1cc2c(N3CCN(/C(S)=N\Cc4ccc5c(c4)OCO5)CC3)ncnc2cc1OCCN1CCCC1', 'IC50', 160),
  ('COc1cc2c(N3CCN(C(=S)NCc4ccc5c(c4)OCO5)CC3)ncnc2cc1OCCN1CCCCC1', 'IC50', 120),
  ('COc1cc2c(N3CCN(/C(S)=N\Cc4ccc5c(c4)OCO5)CC3)ncnc2cc1OCCN1CCOCC1', 'IC50', 260),
  ('COc1cc2c(N3CCN(/C(S)=N\Cc4ccc(-c5ccccc5)nc4)CC3)ncnc2cc1OCCCN1CCCCC1', 'IC50', 130),
  ('COc1cc2c(N3CCN(C(=S)NCc4ccc(-c5cccnc5)cc4)CC3)ncnc2cc1OCCN1CCCCC1', 'IC50', 5190),
  ('COc1cc2c(N3CCN(/C(S)=N\c4ccc(-c5ccccn5)cc4)CC3)c(C#N)cnc2cc1OCCCN1CCCCC1', 'IC50', 130),
  ('COc1cc2c(N3CCN(/C(S)=N\Cc4cccnc4)CC3)ncnc2cc1OCCCN1CCCCC1', 'IC50', 320),
  ('COc1cc2c(N3CCN(C(=NC#N)Nc4ccc(C(C)(C)C)cc4)CC3)ncnc2cc1OCCCN1CCCCC1', 'IC50', 1550),
  ('COc1cc2c(N3CCN(/C(S)=N\c4ccc(-c5ccccn5)cc4)CC3)ncnc2cc1OCCN1CCCCC1', 'IC50', 150),
  ('COc1cc2c(N3CCN(/C(S)=N\Cc4ccnc(Cl)c4)CC3)ncnc2cc1OCCN1CCCCC1', 'IC50', 770),
  ('COc1cc2c(N3CCN(C(=S)NCc4csc(-c5ccc(C(F)(F)F)cc5)n4)CC3)ncnc2cc1OCCCN1CCCCC1', 'IC50', 4470),
  ('COc1cc2c(N3CCN(C(=S)Nc4ccncc4)CC3)ncnc2cc1OCCCN1CCCCC1', 'IC50', 60),
  ('COc1cc2c(N3CCN(/C(S)=N\Cc4ccc(C)nc4)CC3)ncnc2cc1OCCCN1CCCCC1', 'IC50', 90),
  ('COc1cc2c(N3CCN(/C(S)=N\c4ccc(Br)cc4)CC3)ncnc2cc1OCCN1CCCCC1', 'IC50', 390),
  ('COc1cc2c(N3CCN(C(=S)NCc4ccncc4)CC3)ncnc2cc1OCCCN1CCCCC1', 'IC50', 2450),
  ('COc1cc2c(N3CCN(C(=S)NCc4ccc(C(F)(F)F)nc4)CC3)ncnc2cc1OCCCN1CCCCC1', 'IC50', 60),
  ('COc1cc2c(N3CCN(/C(=N\Cc4ccc(C(F)(F)F)nc4)NC#N)CC3)ncnc2cc1OCCCN1CCCCC1', 'IC50', 2180);
